# Assayed target: Casein kinase II subunit alpha (Rattus norvegicus, UniProt P19139)
# Sequence (P19139 whole entry): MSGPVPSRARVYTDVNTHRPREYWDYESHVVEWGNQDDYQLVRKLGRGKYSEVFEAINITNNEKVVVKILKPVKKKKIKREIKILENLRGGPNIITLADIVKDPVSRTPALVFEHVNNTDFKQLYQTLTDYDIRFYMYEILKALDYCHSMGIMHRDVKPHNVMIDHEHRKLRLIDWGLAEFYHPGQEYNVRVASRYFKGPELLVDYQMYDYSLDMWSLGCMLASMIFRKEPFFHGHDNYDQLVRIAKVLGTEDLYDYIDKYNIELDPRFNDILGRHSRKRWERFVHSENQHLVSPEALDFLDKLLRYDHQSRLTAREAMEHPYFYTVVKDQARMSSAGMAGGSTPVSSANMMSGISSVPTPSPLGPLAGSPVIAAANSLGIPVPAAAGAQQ
# Experiment: CK2 Phosphorylation Assay
# Assay conditions: pH 7.5; 37 °C
Measured endpoint: pKi
Units for pKi: none; it is -log10 of a concentration expressed in mol/L.

The compound listed as `Brc1c(I)c(I)c2[nH]cnc2c1I` shows pKi equal to 7.00
